- tested-target: TEAD2 TAZ (amino acids 13-57) (Homo sapiens)
- Sequence (Q15562 217-447): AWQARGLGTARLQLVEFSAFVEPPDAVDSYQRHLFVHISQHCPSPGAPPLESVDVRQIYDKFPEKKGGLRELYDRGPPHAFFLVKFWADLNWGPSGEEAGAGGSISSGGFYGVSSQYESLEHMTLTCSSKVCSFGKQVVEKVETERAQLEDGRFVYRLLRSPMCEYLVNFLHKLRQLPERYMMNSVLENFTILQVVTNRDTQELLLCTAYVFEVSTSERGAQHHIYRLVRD
- test-details: TEAD2-TAZ HTRF (TR-FRET) protein-protein interaction assay
- study-conditions: TEAD2-TAZ HTRF, TR-FRET 665 nm/615 nm; read-out: TEAD2 TAZ HTRF combined: EC50
I'd be grateful if you could share measured EC50 for these entries.
Report as a plain number; the unit nM is understood.

Dear colleague, please send me the reported EC50 for "CCc1ccnc(-c2nn3c(=O)cc(-c4ccc(C5CCCCC5)cc4)[nH]c3c2C(=O)N2CC(CF)C2)n1" when you can.
20

Dear colleague, please send me the reported EC50 for "Cc1ccnc(-c2nn3c(=O)cc(-c4ccc(C5CCCCC5)cc4)[nH]c3c2C(=O)N2CC(CF)C2)c1" when you can.
10

Dear colleague, please send me the reported EC50 for "Cc1nccnc1-c1nn2c(=O)cc(-c3ccc(C4CCCC4)cc3)[nH]c2c1C(=O)N1C[C@H](CF)[C@@H]1C" when you can.
10

Dear colleague, please send me the reported EC50 for "Cc1nccnc1-c1nn2c(=O)cc(-c3ccc(C4CCCCC4)cc3)[nH]c2c1C(=O)N1CC(CF)C1" when you can.
10

###

I'd be grateful if you could share measured TEAD2 YAP50-100 HTRF combined: Max % Inhibition for these entries.
- tested-target: TEAD2 YAP50-100 (Homo sapiens)
- test-details: TEAD2-YAP HTRF (TR-FRET) protein-protein interaction assay
- Type: binding
- study-conditions: TEAD2, YAP peptide 50-100, HTRF
Answers without a unit are incomplete; give the number and then its unit.

Dear colleague, please send me the reported TEAD2 YAP50-100 HTRF combined: Max % Inhibition for "Cc1nccnc1-c1nn2c(=O)cc(-c3ccc(O[C@H](c4ccccc4)C(F)(F)F)cc3)[nH]c2c1C(=O)N1CC(CF)C1" when you can.
84.0%

Dear colleague, please send me the reported TEAD2 YAP50-100 HTRF combined: Max % Inhibition for "CN(C)C(=O)c1nn2c(=O)cc(-c3ccc(CC4CCCC4)cc3)[nH]c2c1C(=O)N1CC(CF)C1" when you can.
68.0%

Dear colleague, please send me the reported TEAD2 YAP50-100 HTRF combined: Max % Inhibition for C[C@@H]1[C@H](CF)CN1C(=O)c1c(-c2cnccn2)nn2c(=O)cc(-c3ccc(C4CCCCC4)cc3)[nH]c12 (single isomer, unassigned) [Isomer B, Example 39] when you can.
17.5%

Dear colleague, please send me the reported TEAD2 YAP50-100 HTRF combined: Max % Inhibition for O=C(c1c(C2CNCCO2)nn2c(=O)cc(-c3ccc(C4CCCCC4)cc3)[nH]c12)N1CC(CF)C1 (single isomer, unassigned) [Enantiomer B, Example 63] when you can.
62.5%

Dear colleague, please send me the reported TEAD2 YAP50-100 HTRF combined: Max % Inhibition for "Cc1cncc(-c2nn3c(=O)cc(-c4ccc(C5CCCCC5)cc4)[nH]c3c2C(=O)N2CC(CF)C2)n1" when you can.
59.5%

Dear colleague, please send me the reported TEAD2 YAP50-100 HTRF combined: Max % Inhibition for "O=C(c1c(-c2nccc(C(F)(F)F)n2)nn2c(=O)cc(-c3ccc(C4CCCCC4)cc3)[nH]c12)N1CC(CF)C1" when you can.
63.5%

Dear colleague, please send me the reported TEAD2 YAP50-100 HTRF combined: Max % Inhibition for "CN(C)C(=O)c1nn2c(=O)cc(-c3cc(F)c(C4CCCCC4)c(F)c3)[nH]c2c1C(=O)N1CC(CF)C1" when you can.
56.5%

Dear colleague, please send me the reported TEAD2 YAP50-100 HTRF combined: Max % Inhibition for "O=C(c1nn2c(=O)cc(-c3ccc(C4CCCCC4)cc3)[nH]c2c1C(=O)N1CC(CF)C1)N1CCCC1" when you can.
73.5%

Dear colleague, please send me the reported TEAD2 YAP50-100 HTRF combined: Max % Inhibition for "CN(C)C(=O)c1nn2c(=O)cc(-c3ccc(C4CCCCC4)c(F)c3)[nH]c2c1C(=O)N1CC(CF)C1" when you can.
64.0%

Dear colleague, please send me the reported TEAD2 YAP50-100 HTRF combined: Max % Inhibition for Cc1nccnc1-c1nn2c(=O)cc(-c3ccc(CC4CCCC4)cc3)[nH]c2c1C(=O)N1C[C@H](CF)[C@@H]1C (single isomer, unassigned) [Isomer B, Example 42] when you can.
68.0%

Dear colleague, please send me the reported TEAD2 YAP50-100 HTRF combined: Max % Inhibition for "Cc1c(-c2nn3c(=O)cc(-c4ccc(C5CCCCC5)cc4)[nH]c3c2C(=O)N2CC(CF)C2)ncn1C" when you can.
61.5%

Dear colleague, please send me the reported TEAD2 YAP50-100 HTRF combined: Max % Inhibition for Cc1nccnc1-c1nn2c(=O)cc(-c3ccc(C4CCCCC4)cc3)[nH]c2c1C(=O)N1C[C@@H](CF)[C@H]1C (single isomer, unassigned) [Isomer A, Example 41] when you can.
26.0%

###

- tested-target: TEAD3 YAP50-100 (Homo sapiens, UniProt Q99594)
- Sequence (Q99594 173-435 limits assumed): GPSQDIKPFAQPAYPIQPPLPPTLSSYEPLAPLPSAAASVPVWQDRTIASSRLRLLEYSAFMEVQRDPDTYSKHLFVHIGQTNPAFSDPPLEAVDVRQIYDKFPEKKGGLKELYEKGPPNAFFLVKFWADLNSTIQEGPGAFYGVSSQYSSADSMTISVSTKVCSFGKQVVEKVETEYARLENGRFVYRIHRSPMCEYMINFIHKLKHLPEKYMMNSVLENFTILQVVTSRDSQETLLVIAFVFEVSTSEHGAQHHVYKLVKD
- test-details: TEAD3-YAP HTRF (TR-FRET) protein-protein interaction assay
- Type: binding
- study-conditions: TEAD3, YAP peptide 50-100, HTRF
I'd be grateful if you could share measured TEAD3 YAP50-100 HTRF combined: Max % Inhibition for these entries.
Report as a plain number; the unit % is understood.

Dear colleague, please send me the reported TEAD3 YAP50-100 HTRF combined: Max % Inhibition for "CC(C)c1ccc(COc2cc(=O)n3nc(-c4cnccn4)c(C(=O)N4CC(CF)C4)c3[nH]2)cc1" when you can.
57.0

Dear colleague, please send me the reported TEAD3 YAP50-100 HTRF combined: Max % Inhibition for "Cc1nccnc1-c1nn2c(=O)cc(-c3ccc(C(F)(F)C4CCCC4)cc3)[nH]c2c1C(=O)N1CC(CF)C1" when you can.
49.5

Dear colleague, please send me the reported TEAD3 YAP50-100 HTRF combined: Max % Inhibition for "C[C@H]1[C@@H](CF)CN1C(=O)c1c(C(=O)N(C)C)nn2c(=O)cc(-c3ccc(C4CCCCC4)cc3)[nH]c12" when you can.
75.5

Dear colleague, please send me the reported TEAD3 YAP50-100 HTRF combined: Max % Inhibition for "CN(C)C(=O)c1nn2c(=O)cc(-c3ccc(CC4CCCC4)cc3)[nH]c2c1C(=O)N1CC(CF)C1" when you can.
60.5

Dear colleague, please send me the reported TEAD3 YAP50-100 HTRF combined: Max % Inhibition for CC(CO)c1nn2c(=O)cc(-c3ccc(C4CCCCC4)cc3)[nH]c2c1C(=O)N1CC[C@@H](C#N)C1 (single isomer, unassigned) [Final product obtained using Enantiomer A from Step 4, Example 54] when you can.
71.5

Dear colleague, please send me the reported TEAD3 YAP50-100 HTRF combined: Max % Inhibition for "Cc1ccnc(-c2nn3c(=O)cc(-c4ccc(C5CCCCC5)cc4)[nH]c3c2C(=O)N2CC(CF)C2)n1" when you can.
62.0

Dear colleague, please send me the reported TEAD3 YAP50-100 HTRF combined: Max % Inhibition for "O=C(c1c(-c2cnccn2)nn2c(=O)cc(-c3ccc(CC4CCCC4)cc3)[nH]c12)N1CC(CF)C1" when you can.
50.0

Dear colleague, please send me the reported TEAD3 YAP50-100 HTRF combined: Max % Inhibition for O=C(c1c(C2CNCCO2)nn2c(=O)cc(-c3ccc(C4CCCCC4)cc3)[nH]c12)N1CC(CF)C1 (single isomer, unassigned) [Enantiomer B, Example 63] when you can.
59.5

Dear colleague, please send me the reported TEAD3 YAP50-100 HTRF combined: Max % Inhibition for "Cc1nccnc1-c1nn2c(=O)cc(-c3ccc(C4CCCCC4)cc3)[nH]c2c1C(=O)N1CC(CF)C1" when you can.
74.6

Dear colleague, please send me the reported TEAD3 YAP50-100 HTRF combined: Max % Inhibition for "O=C(c1c(-c2ncco2)nn2c(=O)cc(-c3ccc(C4CCCCC4)cc3)[nH]c12)N1CC(CF)C1" when you can.
60.0

Dear colleague, please send me the reported TEAD3 YAP50-100 HTRF combined: Max % Inhibition for "CC(C)(C)c1ccc(COc2cc(=O)n3nc(-c4ncccn4)c(C(=O)N4CC(CF)C4)c3[nH]2)cc1" when you can.
56.5

Dear colleague, please send me the reported TEAD3 YAP50-100 HTRF combined: Max % Inhibition for "CN(C)C(=O)c1nn2c(=O)cc(-c3ccc(C4CCCCC4)c(F)c3)[nH]c2c1C(=O)N1CC(CF)C1" when you can.
69.0

Dear colleague, please send me the reported TEAD3 YAP50-100 HTRF combined: Max % Inhibition for "[2H]C1([2H])C([2H])([2H])C([2H])([2H])C([2H])(c2ccc(-c3cc(=O)n4nc(-c5nccnc5C)c(C(=O)N5C[C@H](CF)[C@@H]5C)c4[nH]3)cc2)C([2H])([2H])C1([2H])[2H]" when you can.
76.0
